Taken from patent US10555954B2.

Assay: Pharmacokinetics of methotrexate in plasma after subcutaneous injection with autoinjector or needle/syringe
Conditions: female, Gottingen, minipig, plasma, sc, 12.5 mg, AUC(0-inf), Autoinjector; 12.5 mg SC; animals S5196028/S5195684/S5195757

[
  {
    "compound": "CN(Cc1cnc2nc(N)nc(N)c2n1)c1ccc(C(=O)N[C@@H](CCC(=O)O)C(=O)O)cc1 [Methotrexate]",
    "AUC(0-inf) [ng·h/mL]": 3170
  }
]

* * *

Assay: Pharmacokinetics of methotrexate in plasma after subcutaneous injection with autoinjector or needle/syringe
Conditions: male, Gottingen, minipig, plasma, sc, 12.5 mg, AUC(0-τ), Syringe; 12.5 mg SC; Mean
readout_name: AUC (ng·h/mL)

[
  {
    "compound": "CN(Cc1cnc2nc(N)nc(N)c2n1)c1ccc(C(=O)N[C@@H](CCC(=O)O)C(=O)O)cc1 [Methotrexate]",
    "units_label": "ng·h/mL",
    "value": 1940
  }
]
